biological target: human Cereblon WT GST-tagged protein (Homo sapiens, UniProt Q96SW2); construct: purchased CISBIO 64BDCRBNPEH; experiment: CRBN-binding affinity, HTRF (CEREBLON BINDING kit); conditions: read-out: Inhibition Rate at 0.5 µM (%)
Sequence (Q96SW2 whole entry): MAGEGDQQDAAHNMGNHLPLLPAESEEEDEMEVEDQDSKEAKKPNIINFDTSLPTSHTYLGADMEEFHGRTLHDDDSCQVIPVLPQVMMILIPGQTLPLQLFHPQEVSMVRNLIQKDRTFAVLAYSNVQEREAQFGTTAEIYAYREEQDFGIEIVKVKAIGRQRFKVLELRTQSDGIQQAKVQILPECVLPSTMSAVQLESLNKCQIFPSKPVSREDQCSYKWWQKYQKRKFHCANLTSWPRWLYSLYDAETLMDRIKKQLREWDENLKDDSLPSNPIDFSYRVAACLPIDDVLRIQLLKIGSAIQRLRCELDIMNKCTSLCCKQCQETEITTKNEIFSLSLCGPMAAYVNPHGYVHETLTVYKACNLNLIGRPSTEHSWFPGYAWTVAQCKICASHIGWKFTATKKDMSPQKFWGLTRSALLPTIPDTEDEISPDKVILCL
Known inhibition at 0.5 µM of a selection of compounds

{"COMPOUND": "O=C1CCC(N2Cc3cc(CN4CCN(c5ccccn5)CC4)ccc3C2=S)C(=O)N1 (stereo not shown)", "MEASURED": "60 to 80%"}
{"COMPOUND": "O=C1CCC(N2Cc3cc(CN4CC=C(c5ccnc(F)c5F)CC4)ccc3C2=S)C(=O)N1 (stereo not shown)", "MEASURED": "80 to 100%"}
{"COMPOUND": "Cc1cscc1N1CCN(Cc2cccc3c2CN(C2CCC(=O)NC2=O)C3=S)CC1 (stereo not shown)", "MEASURED": "53 to 60%"}

So what inhibition at 0.5 µM did O=C1CCC(N2Cc3cc(CN4CC=C(c5ncnc6sc7c(c56)CCC7)CC4)ccc3C2=S)C(=O)N1 (stereo not shown) get with human Cereblon WT GST-tagged protein (Homo sapiens, UniProt Q96SW2)? 60 to 80%

###

tested on: Human colon cancer cell line: SW620; assay: Tumor cell proliferation inhibition (CellTiter-Meiluncell luminescent cell viability assay); details: SW-620, 96 h, read-out: Inhibition Rate at 500 nM (%)
Recorded inhibition at 0.5 µM by entry

Reference set (2 entries):
{"COMPOUND": "Nc1cccc2c1CN(C1CCC(=O)NC1=O)C2=O (centres unmarked) [lenalidomide, reference compound]", "ASSAYED_TARGET": "Human colon cancer cell line: SW620", "MEASURED": "5 to 10%"}
{"COMPOUND": "Nc1cccc2c1C(=O)N(C1CCC(=O)NC1=O)C2=O (centres unmarked) [pomalidomide, reference compound]", "ASSAYED_TARGET": "Human colon cancer cell line: SW620", "MEASURED": "20 to 30%"}

Data request, read-out inhibition at 0.5 µM, for O=C1CCC(N2Cc3cc(CN4CC=C(c5ncnc6sc7c(c56)CCCC7)CC4)ccc3C2=S)C(=O)N1 (centres unmarked) [GT-09324] 80 to 100%

inhibition at 0.5 µM lookup needed for Cc1sc2ncnc(C3=CCN(Cc4ccc5c(c4)CN(C4CCC(=O)NC4=O)C5=S)CC3)c2c1C (centres unmarked) [GT-09318] , thanks. 80 to 100%

###

target: human Cereblon WT GST-tagged protein (Homo sapiens); construct: purchased CISBIO 64BDCRBNPEH; test: CRBN-binding affinity, HTRF (CEREBLON BINDING kit); details: read-out: Inhibition Rate at 2 µM (%)
Measured inhibition at 2 µM accompanies every entry in the list below.

Worked examples, 3 compounds total:
{"COMPOUND": "O=C1CCC(N2Cc3c(CN4CCN(c5nc(N6CCOCC6)nc6c5SCC6)CC4)cccc3C2=S)C(=O)N1 (centres unmarked)", "MEASURED": "80 to 100%"}
{"COMPOUND": "O=C1CCC(N2Cc3cc(CN4CCC(c5ncnc6sc(-c7ccccc7)cc56)CC4)ccc3C2=S)C(=O)N1 (centres unmarked)", "MEASURED": "80 to 100%"}
{"COMPOUND": "O=C1CCC(N2Cc3cc(CN4CCN(c5ccccc5Cl)CC4)ccc3C2=S)C(=O)N1 (centres unmarked)", "MEASURED": "80 to 100%"}

// next item, inhibition at 2 µM requested
What value of inhibition at 2 µM has been recorded for this entry: O=C1CCC(N2Cc3c(CN4CCN(c5ccnc(Br)c5F)CC4)cccc3C2=S)C(=O)N1 (centres unmarked) 80 to 100%

Reference for the values: patent EP4745135A1
